Form field: EC50 (one value per entry).
Test system: Human immunodeficiency virus 1
Test: Antiviral activity against HIV1 3B harboring reverse transcriptase K103N/Y181C double mutant infected in human MT2 cells assessed as protection against viral infection by MTT assay
Type: functional, organism-based
Details: Human immunodeficiency virus 1, 3B, MT2; read-out: EC50
Reply with the number, then its unit.

Cc1c(Nc2ccnc(Nc3ccc(C#N)cc3)n2)ccc2cc(C#N)ccc12 : 130 nM

Quick one: EC50 for Cc1cc2cc(C#N)ccc2c(C)c1Nc1nc(Cl)nc(Nc2ccc(C#N)cc2)n1 ?
67 nM

Name the reported EC50 value associated with the compound N#Cc1ccc(Nc2nc(Nc3ccc4cc(C#N)ccc4c3)nc(OCCCN3CCOCC3)n2)cc1
150 nM

// EC50 lookup, key: Cc1c(Nc2nc(Nc3ccc(C#N)cc3)nc(OCCCN3CCOCC3)n2)ccc2cc(C#N)ccc12
98 nM

----------
System: MT2
Test: Cytotoxicity against human MT2 cells assessed as growth inhibition by MTT assay
Assay type: cell-based
parameter: CC50

Guide cases for CC50, answers given:
N#Cc1ccc(Nc2ncnc(Nc3c(F)cc4cc(C#N)ccc4c3F)n2)cc1 : > 100 µM
Cc1c(Nc2ccnc(Nc3ccc(C#N)cc3)n2)ccc2cc(C#N)ccc12 : > 100 µM
N#Cc1ccc(Nc2nccc(Nc3ccn4cc(C#N)cc4c3)n2)cc1 : > 100 µM
Cc1c(Nc2ccnc(Nc3ccc(C#N)cc3)n2)ccn2cc(C#N)cc12 : > 100 µM

Continue with the next molecule.
Would you mind telling me what CC50 value was observed for N#Cc1ccc(Nc2nccc(Nc3ccc4cc(C#N)ccc4c3)n2)cc1 ?
> 100 µM
